- System: Yap1 mRNA
- assayOverview: Antisense inhibition of human Yap1 in A-431 cells by cEt gapmers, single dose (Example 3, RTS36584)
- Format: cell-based
- conditionInfo: Table 12; A-431 cells, 5,000 cells per well, free uptake, 2,000 nM modified oligonucleotide, approx. 48 hours; RTS36584; normalized to RIBOGREEN; Yap1 mRNA relative to untreated control cells
Strand notation (5' to 3'): a small letter for the sugar, then the base; units joined by * are phosphorothioate-linked, units joined directly phosphodiester-linked; [ ] holds rarer units or linkages, { } end groups; capitals alone tell only the bases. k = constrained ethyl (cEt); [5mC] = 5-methylcytosine; d = 2'-deoxy (DNA)
We use 10 % UTC as the dividing line for YAP1 (% UTC): on or above the line is 1, below is 0.

• 958764 (antisense kT*kG*kG*dG*dT*d[5mC]*dT*d[5mC]*dT*dT*dG*dA*dT*kT*kT*k[5mC]) [Compound 958764] = 1
• 958539 (kT*k[5mC]*kT*dA*dT*d[5mC]*d[5mC]*dA*dG*dG*dG*dT*d[5mC]*kA*kA*kT; antisense) [Compound 958539] = 1
• 958594 (k[5mC]*kT*k[5mC]*dT*dT*dA*dG*dG*dT*d[5mC]*dT*d[5mC]*d[5mC]*kT*kT*k[5mC]; antisense) [Compound 958594] = 0
• 958599 (kT*kT*k[5mC]*dA*dA*dG*dA*dA*dT*dA*d[5mC]*d[5mC]*d[5mC]*kA*kG*kT; antisense) [Compound 958599] = 0
• 958769 (antisense k[5mC]*kA*kT*dT*dG*d[5mC]*d[5mC]*dA*d[5mC]*dG*dA*dT*d[5mC]*kT*kA*kA) [Compound 958769] = 1
• 958669 (kG*k[5mC]*kT*dA*dT*d[5mC]*dT*dT*dT*dG*dG*dA*dT*k[5mC]*k[5mC]*kA; antisense) [Compound 958669] = 1

The origin of these recorded values is patent US11214803B2.
